Record: IC50 reported on 72 kDa type IV collagenase (Homo sapiens).
Sequence (P08253 whole entry): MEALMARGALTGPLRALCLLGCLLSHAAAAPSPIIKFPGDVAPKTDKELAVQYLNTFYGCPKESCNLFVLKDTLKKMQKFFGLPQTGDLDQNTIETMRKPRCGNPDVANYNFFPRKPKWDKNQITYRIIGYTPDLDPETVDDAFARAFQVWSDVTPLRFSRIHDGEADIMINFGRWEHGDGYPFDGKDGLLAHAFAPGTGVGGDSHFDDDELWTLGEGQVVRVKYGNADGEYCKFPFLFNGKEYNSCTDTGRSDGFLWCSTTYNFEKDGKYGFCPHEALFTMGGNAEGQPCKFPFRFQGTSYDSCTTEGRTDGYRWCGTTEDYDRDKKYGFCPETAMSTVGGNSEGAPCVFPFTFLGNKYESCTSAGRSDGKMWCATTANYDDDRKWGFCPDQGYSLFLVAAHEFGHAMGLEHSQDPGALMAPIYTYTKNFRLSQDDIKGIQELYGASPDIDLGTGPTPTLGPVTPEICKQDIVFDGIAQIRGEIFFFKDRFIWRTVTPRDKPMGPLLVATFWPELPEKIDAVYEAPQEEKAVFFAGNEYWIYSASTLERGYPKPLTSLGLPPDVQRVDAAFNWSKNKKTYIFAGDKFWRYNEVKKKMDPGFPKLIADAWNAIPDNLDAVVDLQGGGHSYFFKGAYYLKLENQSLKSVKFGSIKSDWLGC

SMILES ENTRY: O=C1NC[C@H](Cc2ccccc2)N(C[C@@H]2CCCN2C[C@@H](CC2CCCCC2)N2C[C@H](Cc3ccc(O)cc3)N(CCc3ccccc3)C(=O)C2=O)C1=O
TARGET DESC: 72 kDa type IV collagenase (Homo sapiens)
IC50: > 100 µM

Please look at the following compound next.
// "CCC[C@H]1CNC(=O)C(=O)N1C[C@@H]1CCCN1C[C@@H](CC1CCCCC1)N1C[C@H](Cc2ccccc2)N(CCc2ccccc2)C(=O)C1=O" : IC50 value = > 100 µM

====

TARGET DESC: Disintegrin and metalloproteinase domain-containing protein 10 (Homo sapiens, UniProt O14672)
Sequence (O14672 whole entry): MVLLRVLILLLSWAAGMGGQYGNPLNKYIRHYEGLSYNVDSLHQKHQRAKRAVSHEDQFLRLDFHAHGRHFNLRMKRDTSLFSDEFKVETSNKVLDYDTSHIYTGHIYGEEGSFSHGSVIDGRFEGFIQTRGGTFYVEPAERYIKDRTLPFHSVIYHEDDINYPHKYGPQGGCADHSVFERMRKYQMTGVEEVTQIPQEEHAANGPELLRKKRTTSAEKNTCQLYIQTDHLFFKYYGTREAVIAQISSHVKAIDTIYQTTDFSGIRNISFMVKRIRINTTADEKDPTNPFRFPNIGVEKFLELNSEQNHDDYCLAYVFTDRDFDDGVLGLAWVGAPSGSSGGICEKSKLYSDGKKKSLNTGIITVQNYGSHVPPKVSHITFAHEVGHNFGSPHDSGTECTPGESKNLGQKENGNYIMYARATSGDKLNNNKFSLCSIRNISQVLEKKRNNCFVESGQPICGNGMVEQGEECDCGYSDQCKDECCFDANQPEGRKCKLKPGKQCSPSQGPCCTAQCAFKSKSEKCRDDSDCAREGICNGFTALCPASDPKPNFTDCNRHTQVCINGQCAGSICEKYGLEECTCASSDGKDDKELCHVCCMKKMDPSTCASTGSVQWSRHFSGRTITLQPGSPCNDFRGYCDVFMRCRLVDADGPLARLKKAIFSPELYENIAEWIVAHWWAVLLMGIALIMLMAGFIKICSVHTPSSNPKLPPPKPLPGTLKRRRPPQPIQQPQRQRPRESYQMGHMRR
pIC50: −log10 of the molar value.
READOUT KIND: pIC50

Known results for compounds:
COMPOUND: CCC[C@H]1CNC(=O)C(=O)N1C[C@@H]1CCCN1C[C@H](Cc1ccc(O)cc1)N1C[C@@H](Cc2ccc3ccccc3c2)N(CCC23CC4CC(CC(C4)C2)C3)C(=O)C1=O
pIC50: < 4.00
--
COMPOUND: O=C1NC[C@@H](Cc2ccc(O)cc2)N(C[C@@H]2CCCN2C[C@@H](Cc2ccc3ccccc3c2)N2CC(Cc3ccc(O)cc3)N(CCC34CC5CC(CC(C5)C3)C4)C(=O)C2=O)C1=O (single isomer, unassigned)
pIC50: < 4.00
--
COMPOUND: CCC[C@H]1CNC(=O)C(=O)N1C[C@@H]1CCCN1C[C@H](Cc1ccc(O)cc1)N1C[C@H](Cc2ccc(O)cc2)N(CC23CC4CC(CC(C4)C2)C3)C(=O)C1=O
pIC50: < 4.00

// "CCCC[C@H]1CN([C@@H](Cc2ccc(O)cc2)CN2CCC[C@H]2CN2C(=O)C(=O)NC[C@H]2Cc2ccc3ccccc3c2)C(=O)C(=O)N1CCC12CC3CC(CC(C3)C1)C2" : pIC50 value = < 4.00

// "CCC[C@H]1CNC(=O)C(=O)N1C[C@@H]1CCCN1C[C@H](Cc1ccc(O)cc1)N1C[C@H](Cc2ccc3ccccc3c2)N(CCC23CC4CC(CC(C4)C2)C3)C(=O)C1=O" : pIC50 value = < 4.00

// "O=C1NC[C@@H](Cc2ccc3ccccc3c2)N(C[C@@H]2CCCN2C[C@H](Cc2ccc(O)cc2)N2C[C@H](Cc3ccc4ccccc4c3)N(CCC34CC5CC(CC(C5)C3)C4)C(=O)C2=O)C1=O" : pIC50 value = < 4.00

// "O=C1NC[C@@H](Cc2ccc3ccccc3c2)N(C[C@@H]2CCCN2C[C@H](Cc2ccc(O)cc2)N2C[C@H](Cc3ccc(O)cc3)N(CCC34CC5CC(CC(C5)C3)C4)C(=O)C2=O)C1=O" : pIC50 value = < 4.00

// "O=C1NC[C@@H](Cc2ccc3ccccc3c2)N(C[C@@H]2CCCN2C[C@H](Cc2ccc(O)cc2)N2C[C@@H](Cc3ccc(O)cc3)N(CCC34CC5CC(CC(C5)C3)C4)C(=O)C2=O)C1=O" : pIC50 value = < 4.00

// "CCC[C@H]1CNC(=O)C(=O)N1C[C@@H]1CCCN1C[C@H](Cc1ccc(O)cc1)N1C[C@H](Cc2ccc(O)cc2)N(CC2CCCCC2)C(=O)C1=O" : pIC50 value = < 4.00

// "O=C1NC[C@H](Cc2ccccc2)N(C[C@@H]2CCCN2C[C@@H](CC2CCCCC2)N2C[C@H](Cc3ccc(O)cc3)N(CCc3ccccc3)C(=O)C2=O)C1=O" : pIC50 value = < 4.00

// "CCC[C@H]1CNC(=O)C(=O)N1C[C@@H]1CCCN1C[C@H](Cc1ccc(O)cc1)N1C[C@H](Cc2ccc(O)cc2)N(CC2CCCC2)C(=O)C1=O" : pIC50 value = < 4.00

// "CCC[C@H]1CNC(=O)C(=O)N1C[C@@H]1CCCN1C[C@H](Cc1ccc(O)cc1)N1C[C@H](Cc2ccc(O)cc2)N(CC2CCC2)C(=O)C1=O" : pIC50 value = < 4.00

// "CCCC[C@H]1CN([C@@H](Cc2ccc(O)cc2)CN2CCC[C@H]2CN2C(=O)C(=O)NC[C@@H]2CCC)C(=O)C(=O)N1CCC12CC3CC(CC(C3)C1)C2" : pIC50 value = < 4.00

// CCC[C@H]1CNC(=O)C(=O)N1C[C@@H]1CCCN1C[C@H](Cc1ccc(O)cc1)N1C[C@H](Cc2ccc(O)cc2)N(CC2CCC(C(C)(C)C)CC2)C(=O)C1=O (stereo not given in full) : pIC50 value = < 4.00

// "O=C1NC[C@@H](Cc2ccc3ccccc3c2)N(C[C@@H]2CCCN2C[C@H](Cc2ccc(O)cc2)N2C[C@@H](Cc3ccc4ccccc4c3)N(CCC34CC5CC(CC(C5)C3)C4)C(=O)C2=O)C1=O" : pIC50 value = < 4.00

// CCC[C@H]1CNC(=O)C(=O)N1C[C@@H]1CCCN1C[C@H](Cc1ccc(O)cc1)N1C[C@H](Cc2ccc(O)cc2)N(CC(CC)c2ccccc2)C(=O)C1=O (stereo not given in full) : pIC50 value = < 4.00

// "CCC[C@H]1CNC(=O)C(=O)N1C[C@@H]1CCCN1C[C@H](Cc1ccc(O)cc1)N1C[C@@H](Cc2ccc(O)cc2)N(CCC23CC4CC(CC(C4)C2)C3)C(=O)C1=O" : pIC50 value = < 4.00

// "CCC[C@H]1CNC(=O)C(=O)N1C[C@@H]1CCCN1C[C@H](Cc1ccc(O)cc1)N1C[C@H](Cc2ccc(O)cc2)N(CCC23CC4CC(CC(C4)C2)C3)C(=O)C1=O" : pIC50 value = < 4.00

// "O=C1NC[C@H](Cc2ccccc2)N(C[C@@H]2CCCN2C[C@H](Cc2ccccc2)N2C[C@H](Cc3ccc(O)cc3)N(CCC34CC5CC(CC(C5)C3)C4)C(=O)C2=O)C1=O" : pIC50 value = < 4.00

// "CCC[C@H]1CNC(=O)C(=O)N1C[C@@H]1CCCN1C[C@@H](CC1CCCCC1)N1C[C@H](Cc2ccccc2)N(CCc2ccccc2)C(=O)C1=O" : pIC50 value = < 4.00

====

TARGET DESC: Neutrophil collagenase (Homo sapiens, UniProt P22894)
Sequence (P22894 101-467 limits assumed): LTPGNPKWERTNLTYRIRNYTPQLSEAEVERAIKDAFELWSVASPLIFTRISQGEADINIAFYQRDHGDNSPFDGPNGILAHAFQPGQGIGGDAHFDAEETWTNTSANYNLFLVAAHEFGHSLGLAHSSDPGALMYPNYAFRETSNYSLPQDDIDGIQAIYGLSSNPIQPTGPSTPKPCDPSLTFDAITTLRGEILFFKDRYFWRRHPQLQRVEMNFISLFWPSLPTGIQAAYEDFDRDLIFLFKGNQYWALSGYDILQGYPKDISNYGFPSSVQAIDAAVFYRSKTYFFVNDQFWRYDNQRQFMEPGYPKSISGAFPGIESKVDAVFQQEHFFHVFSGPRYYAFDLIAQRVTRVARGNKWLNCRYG
PROTOCOL TEXT: Inhibition of MMP8 (unknown origin) using Mca-KLPGL-Dnp-AR as substrate at 100 uM preincubated for 30 mins followed by substrate addition measured after 1 hr by fluorescence assay relative to control
READOUT KIND: inhibition (%)
Supply the numeric figure in %, leaving out any unit text.

Known results for compounds:
COMPOUND: CCCC[C@H]1CN([C@@H](Cc2ccc(O)cc2)CN2CCC[C@H]2CN2C(=O)C(=O)NC[C@H]2Cc2ccc3ccccc3c2)C(=O)C(=O)N1CCC12CC3CC(CC(C3)C1)C2
TARGET DESC: Neutrophil collagenase (Homo sapiens, UniProt P22894)
inhibition (%): 0
//
COMPOUND: O=C1NC[C@H](Cc2ccccc2)N(C[C@@H]2CCCN2C[C@@H](CC2CCCCC2)N2C[C@H](Cc3ccc(O)cc3)N(CCc3ccccc3)C(=O)C2=O)C1=O
TARGET DESC: Neutrophil collagenase (Homo sapiens, UniProt P22894)
inhibition (%): 28
//
COMPOUND: CCC[C@H]1CNC(=O)C(=O)N1C[C@@H]1CCCN1C[C@@H](CC1CCCCC1)N1C[C@H](Cc2ccccc2)N(CCc2ccccc2)C(=O)C1=O
TARGET DESC: Neutrophil collagenase (Homo sapiens, UniProt P22894)
inhibition (%): 0

// "O=C1NC[C@H](Cc2ccccc2)N(C[C@@H]2CCCN2C[C@H](Cc2ccccc2)N2C[C@H](Cc3ccc(O)cc3)N(CCC34CC5CC(CC(C5)C3)C4)C(=O)C2=O)C1=O" : inhibition value = 0

// O=C1NC[C@@H](Cc2ccc(O)cc2)N(C[C@@H]2CCCN2C[C@@H](Cc2ccc3ccccc3c2)N2CC(Cc3ccc(O)cc3)N(CCC34CC5CC(CC(C5)C3)C4)C(=O)C2=O)C1=O (single isomer, unassigned) : inhibition value = 13

// O=C1NCC(Cc2ccccc2)N(C[C@@H]2CCCN2C[C@@H](CC2CCCCC2)N2C[C@H](Cc3ccccc3)N(CCc3ccccc3)C(=O)C2=O)C1=O (single isomer, unassigned) : inhibition value = 0
